Target: T1, EsCas13d, nuclease-dead (Eubacterium siraeum, UniProt B0MS50, R295A;H300A;R849A;H854A)
T1 sequence: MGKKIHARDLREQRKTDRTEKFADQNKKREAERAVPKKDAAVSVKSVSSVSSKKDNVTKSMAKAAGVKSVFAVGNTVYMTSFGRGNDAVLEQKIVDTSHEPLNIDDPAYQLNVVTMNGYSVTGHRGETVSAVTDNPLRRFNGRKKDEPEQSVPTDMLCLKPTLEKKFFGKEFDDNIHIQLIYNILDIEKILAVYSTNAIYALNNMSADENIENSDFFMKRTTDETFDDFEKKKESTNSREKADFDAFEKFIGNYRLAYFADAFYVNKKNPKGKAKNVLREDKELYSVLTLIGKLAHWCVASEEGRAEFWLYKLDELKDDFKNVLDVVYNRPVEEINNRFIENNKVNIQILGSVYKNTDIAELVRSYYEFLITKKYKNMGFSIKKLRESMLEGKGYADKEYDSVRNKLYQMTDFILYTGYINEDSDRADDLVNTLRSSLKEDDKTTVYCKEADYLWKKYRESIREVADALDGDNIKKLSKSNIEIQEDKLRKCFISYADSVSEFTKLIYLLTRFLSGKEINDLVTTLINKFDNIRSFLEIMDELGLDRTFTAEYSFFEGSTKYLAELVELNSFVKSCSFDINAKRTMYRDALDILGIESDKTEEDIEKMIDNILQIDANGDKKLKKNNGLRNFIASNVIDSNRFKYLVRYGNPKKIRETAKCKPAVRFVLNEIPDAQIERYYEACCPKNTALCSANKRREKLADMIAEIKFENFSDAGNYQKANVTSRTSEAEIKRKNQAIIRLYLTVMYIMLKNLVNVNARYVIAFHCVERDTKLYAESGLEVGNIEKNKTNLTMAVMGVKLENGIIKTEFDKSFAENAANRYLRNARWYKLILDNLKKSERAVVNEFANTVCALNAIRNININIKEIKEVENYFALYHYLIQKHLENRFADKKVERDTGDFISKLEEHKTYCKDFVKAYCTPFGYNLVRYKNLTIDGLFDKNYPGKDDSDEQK
Assay: crRNA (strand 1, pre-loaded); Mg2+; 40 mM Tris-HCl pH 7.5, 150 mM NaCl, 6 mM MgCl2, 1 mM DTT, 0.1% Tween-20, 0.2 mg/ml BSA; 25 C; 10 min per concentration, then washed
Conditions: tags: His6-TwinStrep-SUMO cleaved; N-terminal SNAP kept (SNAP-Surface 488); label: 3' end held by stalled T7 RNA polymerase
Examples of binders with documented Kd follow.
Supply the numeric figure in nM, leaving out any unit text.

As a guide, the following entries are already answered.
| BINDER | SCALE_UNIT | OBS_VALUE |
| --- | --- | --- |
| target 2 MT 5'PFS CGA 3'PFS ACU (mixed) RNA 1: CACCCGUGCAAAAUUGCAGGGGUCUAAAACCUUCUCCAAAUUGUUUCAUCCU RNA 2: GGGAAUGGAUCCACAUCUACGAAUUCCGAAGGAUGAAACAAUUUGGAGAAGACUAGAUCGGAAGAGCACACGU | nM | 17 |
| target 1 U3G,G12C (mixed) RNA 1: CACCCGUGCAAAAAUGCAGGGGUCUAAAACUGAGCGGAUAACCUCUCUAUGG RNA 2: GGGAAUGGAUCCACAUCUACGAAUUCGUACCAUAGAGAGCUUAUCCGCGCACCGAGAUCGGAAGAGCACACGU | nM | 8.1 |
| target 1 insU 3' of 13,insA 3' of 11 (mixed) RNA 1: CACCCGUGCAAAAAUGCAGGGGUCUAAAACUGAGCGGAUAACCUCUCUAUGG RNA 2: GGGAAUGGAUCCACAUCUACGAAUUCGUACCAUAGAGAGUGUAUAUCCGCUCACCGAGAUCGGAAGAGCACACGU | nM | 12.3 |

Next, consider the following binder.
Please look up its Kd: target 2 MT 5'PFS UAG 3'PFS AAG (mixed) RNA 1: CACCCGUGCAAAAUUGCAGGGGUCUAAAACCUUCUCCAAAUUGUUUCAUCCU RNA 2: GGGAAUGGAUCCACAUCUACGAAUUCUAGAGGAUGAAACAAUUUGGAGAAGAAGAGAUCGGAAGAGCACACGU 2.87

Recorded values, source paper PMC10786891.
